System: HIV-1 infection of TZM-bl cells
Test: HIV-1 infectivity enhancement assay, β-galactosidase luminescence
Type: cell-based
Conditions: 1.3 µM peptide; infection relative to EF-C (QCKIKQIINMWQ = 1)
Recorded measurements of Rel-EFC, one per entry

>>> print(df.to_string())
       substance                    system_tested  data_value
0       KIKIKIKI  HIV-1 infection of TZM-bl cells        0,03
1  RGDKIKIQINMWQ  HIV-1 infection of TZM-bl cells        0,76
2     CKIKIQINMW  HIV-1 infection of TZM-bl cells        1,29
3        HLHLPLL  HIV-1 infection of TZM-bl cells        0,01
4        KIKIQIW  HIV-1 infection of TZM-bl cells        0,14
5    KYKGAIIGNIK  HIV-1 infection of TZM-bl cells           0

Incoming: # get_value(readout= Rel-EFC, system= HIV-1 infection of TZM-bl cells) for KAKAKAQA
Outgoing: 0,01

Incoming: Here is the next substance: KIKIQINMW
Outgoing: 2,16

----------
# reported ThT Cat. / ThT-Fluorescence (categorical); entries follow
Assay type: physicochemical
Details: ThT-active if fluorescence at least twice the control
Experimental: 4 µL of 1 mg/mL peptide fibrils solution is added to a 20 µL, 50 µM ThT–solution in PBS. The mixture is incubated for 15 min at RT to allow binding of ThT dye with β–sheet rich structures. […] Fluorescence spectra were recorded on an Infinite® M1000 PRO microplate reader (Tecan) at λem = 488 nm upon excitation at λex = 440 nm with 10 nm bandwidths and multiple reads per well (3×3). […] Furthermore, fluorescence microscopy was conducted by staining 1 µL preformed fibrils (1 mg/mL) with 9 µL ThT (50 µM). […]

                         substance                         data_value
0                           KKWWNF       0 (ThT-inactive (N-Fold <2))
1                          RIRFHIW       0 (ThT-inactive (N-Fold <2))
2                          CKFKQFF       0 (ThT-inactive (N-Fold <2))
3                    KIKIQINMWQRGD       0 (ThT-inactive (N-Fold <2))
4              ILKNLSRSRKIKIQINMWQ  1 (ThT. Cat is 1, if Rel. ThT >2)
5                          CKWKWQW       0 (ThT-inactive (N-Fold <2))
6                 ILKNLSRSRKIKIQIC  1 (ThT. Cat is 1, if Rel. ThT >2)
7                    HRRHFRHKITKKK       0 (ThT-inactive (N-Fold <2))
8  LANWMCLAKW [reference compound]  1 (ThT. Cat is 1, if Rel. ThT >2)

Alright, here's another substance for you.
Incoming: Look up ThT Cat. / ThT-Fluorescence (categorical): QCKFKQFF
Outgoing: 1 (ThT. Cat is 1, if Rel. ThT >2)
